# merged literature set: IC50 with FBXL10 (Homo sapiens (Human))

Worked examples, 3 compounds total:
CCN(CCC#N)C(=O)CNCc1cc(/C=N/C2CC2)ccn1 : 250 to 2500 nM
O=C(O)c1ccnc(-n2nccc2OCc2ccc(Cl)cc2OCc2ccccc2)c1 : 100 to 1000 nM
CC(C)C(c1ccccc1)n1cnc(-c2cc(C(=O)O)ccn2)c1 (stereo not shown) : ≤ 100 nM

// returns reported IC50 for input "Oc1cc(Cc2cccc(Cl)c2)nn1-c1cc(-c2nnn[nH]2)ccn1"
< 100 nM

Please do the same for "O=S(=O)(c1ccc(-c2cccc(F)c2)cc1)N1CCN=C1N1CCN(C2CCC2)CC1" as well.
0.138 nM

Please do the same for "O=S(=O)(c1ccc(-c2ccccc2C(F)(F)F)cc1)N1CCN=C1N1CCN(C2CCC2)CC1" as well.
0.102 nM

Please do the same for "O=S(=O)(c1ccc2c(c1)CCCC2)N1CCN=C1N1CCN(C2CCC2)CC1" as well.
0.016 nM

Please do the same for "O=C(O)c1ccnc(CNCc2cncc3ccccc23)c1" as well.
< 250 nM

----------
# merged literature set: pIC50 with UniProt Q8NHM5
pIC50: −log10 of the molar value.

Worked examples, 5 compounds total:
CN(CCCNCc1cc(/C=N/C2CC2)ccn1)Cc1ccccc1 : < 5.60
Clc1ccccc1CCn1cnc(-c2cc(-c3nn[nH]n3)ccn2)c1 : ≥ 7.00
CCN1CCC(CNCc2cc(C(=O)O)ccn2)C1=O (stereo not shown) : > 6.60
CC(N[C@@H](C)C(=O)NCc1ccccc1O)c1cc(C(=O)O)ccn1 (stereo partly shown) : 5.60 to 6.60
CCN(CC)CCCCNCc1cc(C=O)ccn1 : < 5.60

// returns reported pIC50 for input "CN(C)CCNCc1ccnc(CNCC(=O)N(C)C)c1"
< 5.60

Please do the same for "CCN(CC)CCCCNCc1cc(/C=N/CC(F)(F)C(F)(F)F)ccn1" as well.
< 5.60

Please do the same for "C=CCN(CC=C)C(=O)[C@@H](CCCCN(CCC)C(=O)OC(C)(C)C)NCc1cc(C(=O)O)ccn1" as well.
5.60 to 6.60

Please do the same for "COc1cc(-c2c(-c3cc(-c4c[nH]nn4)ccn3)ncn2C)ccc1F" as well.
≥ 7.00

Please do the same for "CCN1CCN(C2=NCCN2S(=O)(=O)c2cc(Cl)ccc2Cl)CC1" as well.
8.45

Please do the same for "CCN1CCN(C2=NCCN2S(=O)(=O)c2cccc3nonc23)CC1" as well.
7.88

Please do the same for "Oc1cc(Cc2ccc(Cl)cc2)nn1-c1cc(-c2nnn[nH]2)ccn1" as well.
> 7.00

Please do the same for "Clc1cccc(Cn2cnc(-c3cc(-c4c[nH]nn4)ccn3)c2)c1Cl" as well.
≥ 7.00

Please do the same for "Cn1cnc(-c2cc(-c3nn[nH]n3)ccn2)c1-c1ccc(F)c(OCC(F)(F)F)c1" as well.
6.00 to 7.00

----------
# merged literature set: pIC50 with FBXL10 (Homo sapiens (Human), UniProt Q8NHM5)
pIC50: −log10 of the molar value.

Worked examples, 5 compounds total:
CN(C)CCCCNCc1cc(C=O)ccn1 : < 5.60
COCCNCc1ccnc(CNCCCN(C)Cc2ccccc2)c1 : < 5.60
COc1cccc(C(=O)N2CCN=C2N2CCN(C3CCC3)CC2)c1 : 8.64
CC(C)(C)C(=O)OCn1nnc(-c2ccnc(-c3ncn(Cc4ccccc4Cl)c3-c3ccc(F)cc3)c2)n1 : 5.00 to 6.00
CCN(CCN(C)C)C(=O)CNCc1cc(C2OCC3(CC3)CN2C(=O)C(F)(F)F)ccn1 (stereo not drawn) : < 5.60

// returns reported pIC50 for input "COc1ccc(-c2ccc(S(=O)(=O)N3CCN=C3N3CCN(C4CCC4)CC3)cc2)cc1"
10.10

Please do the same for "O=C(O)c1ccnc(CNCCCn2ccnc2)c1" as well.
≤ 6.00

Please do the same for "CC(C)COc1ccccc1Cn1cnc(-c2cc(-c3nn[nH]n3)ccn2)c1" as well.
6.00 to 7.00

Please do the same for CCN(CC)CCCCNCc1cc(/C=N/CC(CO)Cc2ccccc2)ccn1 (stereo not drawn) as well.
5.60 to 6.60
